Reference for the values: paper PMC5540273

Tested on: BUB1
Conditions: concentration: 1 μM, replicates: in singlicate; n = 1
READOUT_KIND: %Inh (%)
Entry rule: numbers only, all in %.

Prompt: Report the value of %Inh obtained on BUB1 for Cn1cc(-c2cnc(N)c3c(-c4ccc5c(c4)CCN5C(=O)Cc4ccccc4)csc23)cn1 [GSK2593074] .
Completion: 0

Prompt: Quote BUB1 %Inh for entry COc1cc(Nc2ccnc3cc(-c4ccncc4)ccc23)cc(OC)c1OC.Cl [GW494610] .
Completion: 42

Prompt: // fetch %Inh; item: CCn1cnc2c(NCc3ccccc3)ncnc21 [SKF-96418] ; system: BUB1
Completion: 50

Prompt: With BUB1 as the test system, provide measured %Inh for this compound: CC(C)(C)c1ccc(C(=O)Nc2cn3cc(-n4ccnc4)ccc3n2)cc1
Completion: 7

Prompt: Return reported %Inh for target or system BUB1, item Cc1cccc(Nc2nc(NCCN)ncc2C(N)=O)c1 [GSK1292139] .
Completion: 66

Prompt: Enter recorded %Inh with BUB1 for Cn1cc(-c2ccc3c(c2)CCN3C(=O)Cc2cc(F)cc(C(F)(F)F)c2)c2c(N)ncnc21 [GSK2635225] here.
Completion: 11

Prompt: Tell me its %Inh on BUB1: Nc1ncc(-c2cn[nH]c2)c2scc(-c3ccc4c(c3)CCN4C(=O)Cc3ccccc3)c12 [GSK2593067]
Completion: 11

Prompt: Would you please give the reported %Inh of Cl.Cl.NCC(NC(=O)c1cc(-c2cccnc2)c(-c2ccnc3[nH]ccc23)s1)c1ccccc1 (centres unmarked) [GSK1323434] with BUB1?
Completion: 77

Prompt: Print BUB1 %Inh for Cl.Cl.NC(CNC(=O)c1cc(Br)c(-c2ccnc3[nH]ccc23)s1)c1ccccc1 (centres unmarked) [GSK1322949] .
Completion: 77

Prompt: Specify the recorded %Inh for CC(C)c1nc(-c2ccc(F)c(NS(=O)(=O)c3c(F)cccc3F)c2)c(-c2ccnc(Nc3ccc(N4CCOCC4)nc3)n2)s1 [GSK1804250] , system: BUB1.
Completion: 92.7

Prompt: Please tell me the measured %Inh for CSc1ccc(NC2=C(c3ccc(Cl)cc3)C(=O)NC2=O)cc1 [SB-317658] ; system: BUB1.
Completion: 0

Prompt: For BUB1, give the measured %Inh of the entry COC(=O)Nc1nc2ccc(Oc3ccc(CC(=O)Nc4cc(C(F)(F)F)ccc4F)cc3)cc2[nH]1 [GW680903]
Completion: 63

Prompt: For BUB1, give %Inh of the listed compound: Cc1ccccc1CC(=O)N1CCc2cc(-c3cn(C)c4ncnc(N)c34)ccc21 [GSK2603346]
Completion: 10

Prompt: GET %Inh where system = BUB1 and item = CN(c1ccc(NC(=O)Nc2cccc(Cl)c2)cc1)c1ccnc(N)n1.Cl [GW830707]
Completion: 30

Prompt: Given O=C(Nc1n[nH]c2nc(-c3ccccc3)ccc12)C1CC1 [SB-708999] , report its %Inh on BUB1.
Completion: 0

Prompt: State %Inh (BUB1) of Nc1ncnc2scc(-c3ccc(NC(=O)Cc4cc(F)ccc4F)cc3)c12.O=C(O)C(F)(F)F [SB-731254-M] .
Completion: 0

Prompt: Would you please give the reported %Inh of COc1ccc(NC(=O)c2ccoc2)cc1-c1ccc(C(=O)NCC2CC2)cc1 [GW810437] with BUB1?
Completion: 2

Prompt: GET %Inh | system: BUB1 | item: Fc1cc(Cl)ccc1Nc1ccnc2cc(-c3ccc(CN4CCOCC4)o3)ccc12 [GW560109];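 also: KINOMEscan kinase panel screen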
Completion: 25

Prompt: Send back BUB1 %Inh of CN(c1ccc2c(c1)nc(NCc1ccccc1)n2C)c1ccnc(Nc2ccc(CS(C)(=O)=O)cc2)n1.Cl [GW811603] only.
Completion: 0

Prompt: Find %Inh for COc1cc(Nc2nccc(N3CCC(NC(=O)Nc4ccc5c(c4)OCO5)C3)n2)cc(OC)c1OC (centres unmarked) [GSK1379766] on BUB1 and write it down.
Completion: 43
